# Tested on: CD2F1 mice, L1210 leukemia ip, survival T/C
# procedure-summary: NCI In Vivo Anticancer Drug Screen. Data for tumor model L1210 Leukemia (intraperitoneal) in CD2F1 (CDF1) mice
# applied-conditions: endpoint: mean survival time; dose: 100.0 mg/kg/injection; schedule: Q04DX003 (ip); vehicle: saline with Tween-80; higher = longer survival
Inconclusive results and toxic doses are left out.
measure: T/C

QUERY: Fill in T/C for record CCc1ccccc1NC(=O)c1cccc(Cl)c1
RESULT: 94 % of control

QUERY: Fill in T/C for record O=P(NC1CCCCC1)(NC1CCCCC1)NC1CCCCC1
RESULT: 90 % of control

QUERY: Fill in T/C for record O=c1[nH]cc(CCCc2ccccc2)c(=O)[nH]1
RESULT: 97 % of control

QUERY: Fill in T/C for record CCO/C=C1\SC(=S)N(c2cccc(OC)c2)C1=O
RESULT: 96 % of control

QUERY: Fill in T/C for record CCCCCCCNC(=O)Nc1cc([N+](=O)[O-])ccc1C
RESULT: 93 % of control

QUERY: Fill in T/C for record CC(C)CCCC(C)C1CCC2C3=CCC4CC(O)CCC4(C)C3CCC21C (configuration not stated)
RESULT: 100 % of control

QUERY: Fill in T/C for record CC1(C)C(=O)C2(I)CCC1C2 (configuration not stated)
RESULT: 101 % of control

QUERY: Fill in T/C for record Nc1ccc2c(c1)[nH]c1ccccc12
RESULT: 93 % of control

QUERY: Fill in T/C for record COC(=O)c1ccc(O)c([N+](=O)[O-])c1
RESULT: 104 % of control

QUERY: Fill in T/C for record CCCC1C(=O)N2C(N(C)C)=Nc3ccc(C)cc3N2C1=O (configuration not stated)
RESULT: 94 % of control

QUERY: Fill in T/C for record Cc1ccc(O[Si](C)(C)C)cc1
RESULT: 103 % of control

QUERY: Fill in T/C for record COC(=O)C1(C)CCCC2(C)C1CCC13OCC(CC21)C(=C(C)C)C3OC(C)=O (configuration not stated)
RESULT: 100 % of control

QUERY: Fill in T/C for record CCCCCCCCCCCCCCCCCCNC(=O)Nc1ccc(C)c(C)c1
RESULT: 91 % of control

QUERY: Fill in T/C for record Clc1nc(Cl)nc(-c2cn(-c3ccccc3)c3ccccc23)n1
RESULT: 89 % of control

QUERY: Fill in T/C for record CCCCCOC(=S)S.[Pt]
RESULT: 104 % of control

QUERY: Fill in T/C for record COC(C(N)=O)(c1ccccc1)C(F)(F)F (configuration not stated)
RESULT: 102 % of control

QUERY: Fill in T/C for record O=C(CCCl)OCCCl
RESULT: 102 % of control

QUERY: Fill in T/C for record O=C1C(=O)c2ccccc2C(O)=C1[N+](=O)[O-]
RESULT: 100 % of control

QUERY: Fill in T/C for record O=C(O)C1C2c3cccc4cccc(c34)C12 (configuration not stated)
RESULT: 101 % of control

QUERY: Fill in T/C for record CCC1(CC)CCC(Br)C(Br)C1 (configuration not stated)
RESULT: 95 % of control

QUERY: Fill in T/C for record C=CCNC(=O)/C(=C\c1ccccc1)NC(C)=O
RESULT: 98 % of control

QUERY: Fill in T/C for record CCOC(=O)/C(C#N)=C(\C)c1cccc(C)c1
RESULT: 105 % of control

QUERY: Fill in T/C for record OCn1c2ccccc2c2ccccc21
RESULT: 89 % of control

QUERY: Fill in T/C for record Cc1[nH]c2ccccc2c1C(=O)C(N)=O
RESULT: 92 % of control

QUERY: Fill in T/C for record CCOC(=O)C(C)OC(=O)c1ccccc1 (configuration not stated)
RESULT: 91 % of control

QUERY: Fill in T/C for record COC(=O)N1c2ccc(OC)cc2C=CC1C#N (configuration not stated)
RESULT: 96 % of control

QUERY: Fill in T/C for record CC(C)C(C=O)C(O)(C(F)(F)F)C(F)(F)Cl (configuration not stated)
RESULT: 91 % of control

QUERY: Fill in T/C for record COc1cc(/C=N\NC(C)=O)cc(OC)c1OC
RESULT: 101 % of control

QUERY: Fill in T/C for record O=C(O)CCC(=O)c1ccc(Cl)c(Cl)c1
RESULT: 98 % of control

QUERY: Fill in T/C for record CCCCC(=O)N(c1ccc(Nc2c3ccccc3nc3cc([N+](=O)[O-])ccc23)cc1)S(C)(=O)=O
RESULT: 98 % of control

QUERY: Fill in T/C for record COc1ccc(C(=O)CC(C#N)c2ccc(OC)c(OC)c2)cc1OC (configuration not stated)
RESULT: 98 % of control

QUERY: Fill in T/C for record CCOC(=O)c1cnc[nH]c1=O
RESULT: 104 % of control

QUERY: Fill in T/C for record O=C1C(c2ccccc2)=C(c2ccccc2)C2=CC(c3ccccc3)=C(c3ccccc3)C(c3ccccc3)C12Br (configuration not stated)
RESULT: 90 % of control

QUERY: Fill in T/C for record CC(C)CC(NC(=O)CCl)C(=O)O (configuration not stated)
RESULT: 97 % of control

QUERY: Fill in T/C for record NC(=O)NN=C1CCC(CC2CCCCC2)CC1 (configuration not stated)
RESULT: 112 % of control

QUERY: Fill in T/C for record CCOC(=O)C(C#N)(CCC#N)CCC#N
RESULT: 100 % of control

QUERY: Fill in T/C for record NC1=C(Cl)C(=O)C(N)=C(Cl)C1=O
RESULT: 101 % of control

QUERY: Fill in T/C for record N=C(N)N
RESULT: 96 % of control

QUERY: Fill in T/C for record Cc1cc(C)c(NC(=O)c2ccccc2Cl)c(C)c1
RESULT: 97 % of control

QUERY: Fill in T/C for record [Cl][Pt][Cl].[NH-]NC(=O)c1ccncc1
RESULT: 94 % of control

QUERY: Fill in T/C for record OCCNCCO
RESULT: 97 % of control

QUERY: Fill in T/C for record COc1cc(C)c(O)c(C[P+](c2ccccc2)(c2ccccc2)c2ccccc2)c1
RESULT: 96 % of control

QUERY: Fill in T/C for record CC(OC(=O)c1ccccc1)c1ccccc1 (configuration not stated)
RESULT: 96 % of control

QUERY: Fill in T/C for record CC1(C)COC(CCc2ccccc2)=N1
RESULT: 104 % of control

QUERY: Fill in T/C for record C(=N/N=C(\C(=N\N=C\c1ccc2c(c1)CCC2)c1ccccc1)c1ccccc1)\c1ccc2c(c1)CCC2
RESULT: 96 % of control

QUERY: Fill in T/C for record Nc1cc(Nc2ccc(Cl)cc2)c2nc(-c3ccc(Cl)cc3)c(-c3ccc(Cl)cc3)nc2n1
RESULT: 100 % of control

QUERY: Fill in T/C for record N#[N+]c1cn(C2CC(O)C(CO)O2)c(=O)[nH]c1=O (configuration not stated)
RESULT: 101 % of control

QUERY: Fill in T/C for record ClP1(c2ccccc2)=NP(Cl)(c2ccccc2)=NP(Cl)(c2ccccc2)=NP(Cl)(c2ccccc2)=N1 (configuration not stated)
RESULT: 96 % of control

QUERY: Fill in T/C for record COC(=O)C1(C)CCCC2(C)C1CCC1(O)C2CC2OC2(C(C)C)C1O (configuration not stated)
RESULT: 97 % of control

QUERY: Fill in T/C for record COC(=O)C1(C)CCCC2(C)C1CCC13OCC(CC21)C1(C(C)C)OC31 (configuration not stated)
RESULT: 101 % of control

QUERY: Fill in T/C for record Cc1cc(N)c(C)c([N+](=O)[O-])c1
RESULT: 103 % of control

QUERY: Fill in T/C for record CCCOC(=O)OCCC
RESULT: 94 % of control

----------
# System: CD2F1 mice, L1210 leukemia ip, survival T/C
# procedure-summary: NCI In Vivo Anticancer Drug Screen. Data for tumor model L1210 Leukemia (intraperitoneal) in CD2F1 (CDF1) mice
# applied-conditions: endpoint: mean survival time; dose: 25.0 mg/kg/injection; schedule: Q01DX005 (ip); vehicle: other
Inconclusive results and toxic doses are left out. How the source made its calls: active means survival T/C of 150% or more; inactive means T/C below 125% in these data.
Entry note: the call must match one of active, inactive

QUERY: In this assay, the call recorded for CC(=O)OCC1OC(n2cnc3c(Cl)ncnc32)C(OC(C)=O)C1OC(C)=O (stereo not given) was what?
RESULT: inactive

QUERY: In this assay, the call recorded for CN(N=O)C(=O)N[C@@H](C=O)[C@@H](O)[C@H](O)[C@H](O)CO was what?
RESULT: inactive

QUERY: In this assay, the call recorded for CC12CCC(OC3CCCCO3)CC1=CCC1C2CCC2(C)C1CCC21CCNP(=O)(N(CCCl)CCCl)O1 (stereo not given) was what?
RESULT: inactive

QUERY: In this assay, the call recorded for OCCN(CCO)N=Nc1c(F)cc(F)cc1F was what?
RESULT: inactive

QUERY: In this assay, the call recorded for O=[N+]([O-])c1ccc(Sc2ncnc3nc[nH]c23)c([N+](=O)[O-])c1 was what?
RESULT: active
